tested on: P12-Ichikawa; test: cell viability relative to DMSO control; higher = less cytotoxic; settings: HPLM + 10% dialyzed FBS; 48 h; 0.00234 µM
Listed next: entries and their corresponding cell viability.
Kindly answer with a numeric value in %, unit omitted.

These solved cases illustrate the format of a correct answer.
compound	quantitative-result
CCCCN1CCC(CNC(=O)c2c3n(c4ccccc24)CCCO3)CC1	104
Nc1cc(N2CCCCC2)nc(N)[n+]1[O-]	125
C[C@]12CC[C@H]3[C@@H](CC[C@@]45O[C@@H]4C(O)=C(C#N)C[C@]35C)[C@@H]1CC[C@@H]2O	116

What does the record list as cell viability for `C[C@@H](Cc1cc2c(c(C(N)=O)c1)N(CCCO)CC2)NCCOc1ccccc1OCC(F)(F)F` ?
115

Proceed to `CC[C@H]1OC(=O)[C@H](C)[C@@H](O[C@H]2C[C@@](C)(OC)[C@@H](O)[C@H](C)O2)[C@H](C)[C@@H](O[C@@H]2O[C@H](C)C[C@H](N(C)C)[C@H]2O)[C@](C)(O)C[C@@H](C)/C(=N\OCOCCOC)[C@H](C)[C@@H](O)[C@]1(C)O`
96.1

Proceed to `Cc1nnc(C(C)C)n1[C@@H]1C[C@H]2CC[C@@H](C1)N2CC[C@H](NC(=O)C1CCC(F)(F)CC1)c1ccccc1`
99.8

Proceed to `CCC(=O)O[C@@]1(CC[C@H]2[C@@H]3CCC/4=C/C(=O)CC[C@]4(C)[C@H]3CC[C@]12C)C(=O)CO`
107

Proceed to `O=C(NOCC1CC1)c1ccc(F)c(F)c1Nc1ccc(I)cc1Cl`
98
